Measured values drawn from PubChem BioAssay AID1159580 for this set.

experiment: chemical genetic growth profiling, strain panel (AID 1159580);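 also: tested at 20 µM; growth read once vehicle control cultures reached saturation at 30 °C; 1 = growth at the plate median or of vehicle wells; lower values mean less growth of the strain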; conditions: S. cerevisiae deletion strains, growth OD, locus YPL256C, strain CLN2, stronger effect = lower value
Out of some 5,500 compounds screened, about 2,000 (36%) were called active. About 18% were inconclusive and are not listed. This is one part of the list.
Categories are defined by ranges of normalized growth, namely bottom end: < 0.8; midrange: ≥ 0.8 and < 1; top end: ≥ 1

Worked examples, 4 molecules total:
OC[C@H]1O[C@@H](O[C@@H]2[C@@H](CO)O[C@](O)(CO)[C@H]2O)[C@H](O)[C@@H](O)[C@H]1O : midrange
COC(=O)c1c(C)c2c(c(C)c1O)OC(=O)c1c(C)c(Cl)c(O)c(Cl)c1O2 : midrange
Cc1c(C)c(C)c(C(=O)c2ccc(N=Cc3cc(Cl)cc(Cl)c3O)cc2)c(C)c1C : bottom end
N#CSCC(=O)c1ccccc1 : bottom end

Lab note: which band did "Cc1cc(/C(N)=N\OC(=O)C(C)(C)C)cc(/C(N)=N\OC(=O)C(C)(C)C)c1" land in? midrange

Lab note: which band did "O=C(CC(=O)c1ccccc1)c1ccccc1" land in? bottom end

Lab note: which band did C/C=C\C1=C(C(=O)O)N2C(=O)C(NC(=O)C(N)c3ccc(O)cc3)C2SC1 (stereo unspecified) land in? top end

* * *

assay: chemical genetic growth profiling, strain panel (AID 1159580);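 also: tested at 20 µM; growth read once vehicle control cultures reached saturation at 30 °C; 1 = growth at the plate median or of vehicle wells; lower values mean less growth of the strain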; details: S. cerevisiae deletion strains, growth OD, locus YNL209W, strain ssb2, stronger effect = lower value
Screen size: about 5,500 compounds; about 2,000 (36%) were called active. Not shown: some 18% with an inconclusive outcome. This is one part of the list.
experimental.readout: normalized growth
Just the number.

Worked set:
CC(=O)O[C@H]1CC[C@@]2(C)C(C[C@@H](OC(C)=O)[C@@]3(C)C4=CC(=O)O[C@@H](c5ccoc5)[C@]4(C)CCC23)C1(C)C (some centres undefined) : 1.02
C=C1C[C@]23C[C@@]1(O)CC[C@H]2[C@@]12C=C[C@H](O)[C@@](C)(C(=O)O1)[C@H]2[C@@H]3C(=O)O : 1.03

Please list normalized growth recorded for the molecule "CN(C)[C@@H]1C(=O)C(C(N)=O)=C(O)[C@@]2(O)C(=O)C3=C(O)c4c(O)ccc(Cl)c4[C@@H](O)[C@H]3C[C@@H]12" 0.975

Please list normalized growth recorded for the molecule CC(C)=CCCC(C)[C@@H]1CC[C@]2(C)C3=C(CC[C@@]12C)C1(C)CC[C@H](O)C(C)(C)C1CC3 (some centres undefined) 1.06

Please list normalized growth recorded for the molecule CC(=O)O[C@@H]1CC2C(C)(C)C(=O)C=C[C@]2(C)C2CC[C@]3(C)C(=CC(=O)O[C@H]3c3ccoc3)[C@@]21C (some centres undefined) 0.991

Please list normalized growth recorded for the molecule CC1(C)CC2C1CC[C@]1(CBr)CCC3C(CC(=O)O)C(=O)O[C@@]32C1 (some centres undefined) 1.01

Please list normalized growth recorded for the molecule CCC(C)[C@H]1O[C@]2(C=C[C@@H]1C)C[C@@H]1C[C@@H](C/C=C(\C)[C@@H](OC3C[C@H](OC)C(O[C@H]4C[C@H](OC)[C@@H](O)[C@H](C)O4)[C@H](C)O3)[C@@H](C)/C=C/C=C3\CO[C@@H]4[C@H](O)C(C)=C[C@@H](C(=O)O1)[C@]34O)O2 (some centres undefined) 0.937
